- System: PC-3 prostate
- METHOD_NOTES: NCI-60 one-dose screen, 48 h (100 = growth as untreated, 0 = no growth, -100 = all killed)
- CONDITION_PARAMETERS: 10 µM
About 83,000 compounds went through this panel and 20% of them were active in at least one assay; those are over-represented in the sample as a whole.
Measured growth values are reported for all entries that follow.
Write it as a number; the unit % goes unstated.

The examples below pair each entry with its known result.
CC[C@@H](C(=O)[C@H](C)[C@H](O)[C@@H](C)[C@H]1O[C@H]([C@@H](CC)C(=O)O)CC[C@H]1C)C1O[C@]2(C=C[C@@H](O)[C@]3(CC[C@@](C)([C@H]4CC[C@](O)(CC)[C@H](C)O4)O3)O2)[C@H](C)C[C@@H]1C (some centres undefined) : 27.5
COc1ccc(-c2cc(-c3ccccc3)nc(SCCCCCCC(=O)NO)n2)cc1 : 58.8
CCOC(=O)CN(c1sc(C)c(C)c1C(=O)OCC)S(=O)(=O)c1ccc(C)cc1 : 74.5

Request: Value lookup for growth; key = `COc1cccc2ccc(CC(O)(c3ccccc3)c3ccccc3)nc12`
Response: 79

The measured values listed here are drawn from PubChem BioAssay (NCI).
